Assay: DRD fibroblast viability loss – cell-based, non-viral oncogenic, luminescence, dose response (AID 1934)
Format: functional
Conditions: Homo sapiens
Active and inactive are the calls of the source. No stated cut-off is given here; in the data, actives have a measured EC50 and inactives only a lower limit.
VALUE TYPE: EC50

The examples below pair each entry with its known result.
COMPOUND	EC50
Cc1oc2c(c1C(=O)N1CCOCC1)C(=O)c1ccccc1C2=O	10.5 µM (active)
COc1ccc2[nH]c(C(=O)N/N=C/c3ccc(O)cc3O)cc2c1	9.2 µM (inconclusive)

Using the record for CCOC(=O)C(C)Oc1cccc2c(=O)n(CC(=O)NCc3ccccc3)ccc12 (centres undefined) , report its EC50.
0.645 µM (active)

Request: COc1cc(C2c3cc4c(cc3C(OC3OC5COC(c6cccs6)OC5C(O)C3O)C3COC(=O)C23)OCO4)cc(OC)c1O (centres undefined)
8.49 µM (inconclusive)
